assay_system: glucocorticoid receptor (Homo sapiens)
Construct: endogenous in cells; ATCC cat
Sequence (P04150 whole entry): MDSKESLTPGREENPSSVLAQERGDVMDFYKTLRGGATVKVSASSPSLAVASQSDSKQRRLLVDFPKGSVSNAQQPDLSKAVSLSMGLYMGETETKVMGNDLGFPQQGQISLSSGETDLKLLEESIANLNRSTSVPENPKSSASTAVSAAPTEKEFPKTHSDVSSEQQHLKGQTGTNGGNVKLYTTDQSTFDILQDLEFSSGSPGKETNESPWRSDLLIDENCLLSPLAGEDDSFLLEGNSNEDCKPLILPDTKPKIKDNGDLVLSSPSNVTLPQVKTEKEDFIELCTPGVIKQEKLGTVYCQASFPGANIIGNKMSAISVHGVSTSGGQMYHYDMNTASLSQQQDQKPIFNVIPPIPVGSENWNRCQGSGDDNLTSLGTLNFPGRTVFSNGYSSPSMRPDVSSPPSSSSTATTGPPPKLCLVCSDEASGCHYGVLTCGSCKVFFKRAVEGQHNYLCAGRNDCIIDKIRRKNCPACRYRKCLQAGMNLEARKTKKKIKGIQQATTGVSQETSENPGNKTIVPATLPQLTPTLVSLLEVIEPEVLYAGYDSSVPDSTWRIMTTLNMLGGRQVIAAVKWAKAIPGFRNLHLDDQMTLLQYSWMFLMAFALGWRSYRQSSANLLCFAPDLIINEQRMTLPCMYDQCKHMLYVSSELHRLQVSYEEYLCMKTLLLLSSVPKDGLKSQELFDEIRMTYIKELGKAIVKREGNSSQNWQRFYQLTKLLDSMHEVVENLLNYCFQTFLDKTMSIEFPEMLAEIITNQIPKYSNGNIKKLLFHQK
assay_details: Hep G2 TAT Ki: inhibition of dexamethasone-induced TAT in HepG2 cells (96 well)
test_parameters: challenge of 100 nM dexamethasone, IC50 converted to Ki by Cheng and Prusoff equation
Each entry below carries its reported pKi.
Remember the convention: pKi equals -log10 of concentration in molar.

Prompt line: What measured pKi goes with Cc1ccccc1CN1CCN(S(=O)(=O)c2cnn(C)n2)CC1c1cc2cnn(-c3ccc(F)cc3)c2cc1C (stereo not drawn) ?
Response line: 6.80

Prompt line: Consider the compound shown here: Cc1cc2c(cnn2-c2ccc(F)cc2)cc1C1CN(S(=O)(=O)c2cnn(C3CCOCC3)c2)CCN1CC(C)C (single isomer, unassigned) [Example 54] What is its recorded pKi?
Response line: 7.51

Prompt line: Reported pKi, compound Cc1cc2c(cnn2-c2ccc(F)cc2)cc1C1CN(S(=O)(=O)c2cnn(C)n2)CCN1CC1CCCO1 (single isomer, unassigned) : ____
Response line: 7.19

Prompt line: Using the record for Cc1cc2c(cnn2-c2ccc(F)cc2)cc1C1CN(S(=O)(=O)c2cnn(C)n2)CC(C)N1CC(C)C (stereo not drawn) , report its pKi.
Response line: 7.27

Prompt line: Can you share its pKi? I mean this compound: Cc1cc2c(cnn2-c2ccc(F)cc2)cc1C1CN(S(=O)(=O)c2cnn(C)n2)CCN1CC1CCCC1 (single isomer, unassigned)
Response line: 7.89

Prompt line: Please give the measured pKi for this compound: Cc1cc2c(cnn2-c2ccc(F)cc2)cc1C1CN(S(=O)(=O)CC2CC2)CCN1CC(C)C (single isomer, unassigned) [Example 46]
Response line: 6.51

====

assay_system: glucocorticoid receptor (Homo sapiens)
Construct: endogenous in cells; ATCC cat
assay_details: Hep G2 TAT Ki: inhibition of dexamethasone-induced TAT in HepG2 cells (96 well)
test_parameters: challenge of 100 nM dexamethasone, IC50 converted to Ki by Cheng and Prusoff equation
As shown below, each of these compounds has a reported pKi value.
Lab note — pKi values are minus log10 of concentrations in M.

Solved cases (5 shown):
Prompt line: Provide the documented pKi with glucocorticoid receptor (Homo sapiens) as the system for Cc1cc2c(cnn2-c2ccc(F)cc2)cc1C1CN(S(=O)(=O)c2cnn(C)n2)CCN1CC1CCOCC1 (stereo not drawn) [Example 13]
Response line: 7.01

Prompt line: Find pKi (glucocorticoid receptor (Homo sapiens)) for the entry CC(=O)N1CCN(S(=O)(=O)c2cnn(C)n2)CC1c1cc2cnn(-c3ccc(F)cc3)c2cc1C (stereo not drawn) [Example 34]
Response line: 6.37

Prompt line: # value lookup — system glucocorticoid receptor (Homo sapiens), readout pKi, item CCN1CCN(S(=O)(=O)c2cnn(C)n2)CC1c1cc2cnn(-c3ccc(F)cc3)c2cc1C (stereo not drawn) [Example 15]
Response line: 6.59

Prompt line: State its pKi on glucocorticoid receptor (Homo sapiens): Cc1ncc(S(=O)(=O)N2CCN(CC3CCC3)C(c3cc4cnn(-c5ccc(F)cc5)c4cc3C)C2)s1 (single isomer, unassigned) [Example 124]
Response line: 7.85

Prompt line: Missing value: pKi, glucocorticoid receptor (Homo sapiens), entry COCCn1cc(S(=O)(=O)N2CCN(CC(C)C)C(c3cc4cnn(-c5ccc(F)cc5)c4cc3C)C2)cn1 (single isomer, unassigned) [Example 47] . Fill in?
Response line: 7.64

In the following, a different compound is considered.
Prompt line: Look up pKi with glucocorticoid receptor (Homo sapiens) for this compound: Cc1cc2c(cnn2-c2ccc(F)cc2)cc1C1CN(S(=O)(=O)c2cccnc2)CCN1CCC(F)(F)F (single isomer, unassigned) [Example 132]
Response line: 7.89
